The reported numbers originate from patent US20090012085A1.

- METHOD_SUMMARY: Phase I dose-escalating study, plasma pharmacokinetics in patients with solid tumor
- Format: in vivo, human
- CONDITION_DESCRIPTION: human, plasma, 150 mg, 150 mg QD (4/1), C2D28 (n = 4), plasma; read-out: Cmax, mean (% CV)
ATTRIBUTE_MEASURED: Cmax (ng/mL)
Return type: number; implicit unit ng/mL.

-- ask # get_value(readout='Cmax', item= Cc1[nH]c(/C=C2\C(=O)Nc3ccc(F)cc32)c(C)c1C(=O)NC[C@H](O)CN1CCOCC1 [compound 1] )
-- reply 269

---

- METHOD_SUMMARY: Phase I dose-escalating study, plasma pharmacokinetics in patients with solid tumor
- Type: in vivo, human
- CONDITION_DESCRIPTION: human, plasma, 100 mg, 100 mg QD (continuous), C1D28 (n = 6), plasma; read-out: C(trough, 24 h), mean (% CV)
ATTRIBUTE_MEASURED: concentration at 24 h
# include the unit after the value

-- ask Look up concentration at 24 h: "Cc1[nH]c(/C=C2\C(=O)Nc3ccc(F)cc32)c(C)c1C(=O)NC[C@H](O)CN1CCOCC1"
-- reply 63 ng/mL

---

- METHOD_SUMMARY: Phase I dose-escalating study, plasma pharmacokinetics in patients with solid tumor
- Assay type: in vivo, human
- CONDITION_DESCRIPTION: human, plasma, 150 mg, 150 mg QD (4/1), C1D1 (n = 7), plasma; read-out: t½, mean (% CV) (converted)
ATTRIBUTE_MEASURED: half-life (h)
Number only, in h; omit the unit.

-- ask Looking for the measured half-life of "Cc1[nH]c(/C=C2\C(=O)Nc3ccc(F)cc32)c(C)c1C(=O)NC[C@H](O)CN1CCOCC1" , can you help?
-- reply 13.6

---

- METHOD_SUMMARY: Phase I dose-escalating study, plasma pharmacokinetics in patients with solid tumor
- Assay type: in vivo, human
- CONDITION_DESCRIPTION: human, plasma, 100 mg, 100 mg QD (continuous), C1D28 (n = 6), plasma; read-out: Cmax, mean (% CV)
ATTRIBUTE_MEASURED: Cmax (ng/mL)
Give the value, in units of ng/mL, as a plain number.

-- ask Could you tell me which Cmax is on file for Cc1[nH]c(/C=C2\C(=O)Nc3ccc(F)cc32)c(C)c1C(=O)NC[C@H](O)CN1CCOCC1 [compound 1] ?
-- reply 255

---

- METHOD_SUMMARY: Phase I dose-escalating study, plasma pharmacokinetics in patients with solid tumor
- Format: in vivo, human
- CONDITION_DESCRIPTION: human, plasma, 200 mg, 200 mg QD (4/1), C1D28 (n = 5), plasma; read-out: Cmax, mean (% CV)
ATTRIBUTE_MEASURED: Cmax (ng/mL)
I only need the number, in ng/mL, no unit after it.

-- ask Please report the recorded Cmax for "Cc1[nH]c(/C=C2\C(=O)Nc3ccc(F)cc32)c(C)c1C(=O)NC[C@H](O)CN1CCOCC1" .
-- reply 561

---

- METHOD_SUMMARY: Phase I dose-escalating study, plasma pharmacokinetics in patients with solid tumor
- Type: in vivo, human
- CONDITION_DESCRIPTION: human, plasma, 200 mg, 200 mg QD 4/1 (n = 5), nominal time 48 h; read-out: Mean plasma concentration following the last dose on cycle 1 day 28
ATTRIBUTE_MEASURED: concentration at 48 h
Remember to follow the number with its unit.

-- ask Name the recorded concentration at 48 h for "Cc1[nH]c(/C=C2\C(=O)Nc3ccc(F)cc32)c(C)c1C(=O)NC[C@H](O)CN1CCOCC1" .
-- reply 87.6 ng/mL
